// reported hERG current change (%, negative = inhibition) at 10uM for each item listed
# Measured target: human ether-à-go-go-related gene (hERG) potassium channel (human, UniProt Q12809);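 further: peak tail current of the secondary pulse compared with the same well before compound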
# Sequence (Q12809 whole entry, looked up): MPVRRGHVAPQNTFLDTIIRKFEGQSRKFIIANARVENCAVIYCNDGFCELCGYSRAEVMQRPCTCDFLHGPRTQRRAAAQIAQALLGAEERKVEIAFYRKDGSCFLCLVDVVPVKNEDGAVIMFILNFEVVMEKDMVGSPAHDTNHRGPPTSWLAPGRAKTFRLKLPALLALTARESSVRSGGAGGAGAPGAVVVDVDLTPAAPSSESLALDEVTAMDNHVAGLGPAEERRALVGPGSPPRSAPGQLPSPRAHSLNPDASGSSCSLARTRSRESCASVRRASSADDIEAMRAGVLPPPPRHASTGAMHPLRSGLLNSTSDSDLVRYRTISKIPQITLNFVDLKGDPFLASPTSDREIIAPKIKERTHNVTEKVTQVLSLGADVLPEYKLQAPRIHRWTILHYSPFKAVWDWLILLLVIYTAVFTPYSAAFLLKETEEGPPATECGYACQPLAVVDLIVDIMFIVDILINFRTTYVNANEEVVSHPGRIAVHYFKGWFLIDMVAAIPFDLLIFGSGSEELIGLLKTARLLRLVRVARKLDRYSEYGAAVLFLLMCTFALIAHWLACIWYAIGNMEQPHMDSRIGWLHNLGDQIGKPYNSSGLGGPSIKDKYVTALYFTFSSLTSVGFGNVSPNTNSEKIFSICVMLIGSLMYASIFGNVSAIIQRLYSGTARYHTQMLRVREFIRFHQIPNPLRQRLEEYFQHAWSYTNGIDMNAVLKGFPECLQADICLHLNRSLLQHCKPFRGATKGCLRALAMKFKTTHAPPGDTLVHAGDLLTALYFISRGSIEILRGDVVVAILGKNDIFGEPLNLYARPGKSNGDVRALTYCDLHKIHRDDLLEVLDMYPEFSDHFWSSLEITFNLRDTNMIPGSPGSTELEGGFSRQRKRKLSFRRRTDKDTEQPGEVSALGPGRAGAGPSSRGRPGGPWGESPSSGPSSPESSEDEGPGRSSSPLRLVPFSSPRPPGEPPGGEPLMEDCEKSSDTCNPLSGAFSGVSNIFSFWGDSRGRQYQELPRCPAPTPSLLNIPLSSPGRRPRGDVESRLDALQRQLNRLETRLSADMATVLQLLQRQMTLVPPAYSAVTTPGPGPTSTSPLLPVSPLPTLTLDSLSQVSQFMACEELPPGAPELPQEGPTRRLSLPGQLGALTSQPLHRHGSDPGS
# Procedure text: primary screen, population patch clamp on CHO cells stably expressing hERG; higher = less effect of the substance
The whole screen tested about 310,000 compounds, of which about 14,000 (4.5%) showed an effect of 50% or more. Effects have a minus sign here. Shown is part of a subset that was picked to be rich in strong results.
Measurement kind: hERG current change (%, negative = inhibition) at 10uM (%)

> print(dat)
                                   compound  scale.unit  test.value
1  COc1cc(C(=O)NCC(c2ccco2)N2CCCC2)ccc1OCc1ccccc1 (stereo not drawn)           %       -40.5
2    Cc1cccc(NC(=O)Nc2ccccc2[N+](=O)[O-])n1           %        16.7
3  O=C(Nc1cccc2ccccc12)/C(=C/c1ccc([N+](=O)[O-])cc1)NC(=O)c1ccccc1           %       -55.6
4  CCOc1ccc(/C=C/c2[nH]c(=O)[nH]c(=O)c2[N+](=O)[O-])cc1           %        8.01
5  O=C(Nc1cccc(C(=O)O)c1)/C(=C/c1ccc([N+](=O)[O-])cc1)NC(=O)c1ccccc1           %       -5.36
6  O=C(Nc1ccc([N+](=O)[O-])cc1)/C(=C/c1cccc([N+](=O)[O-])c1)NC(=O)C1CCCCC1           %         -69
7  COc1ccccc1-c1nn(-c2ccccc2)cc1C(=O)NCC(c1ccco1)N1CCCC1 (stereo not drawn)           %         -53
8  O=C(Nc1ccc(Br)cc1)/C(=C/c1cccc([N+](=O)[O-])c1)NC(=O)C1CCCCC1           %         -16
9  O=C(NCC(c1ccco1)N1CCCC1)c1cn(Cc2ccccc2)nc1-c1ccccc1 (stereo not drawn)           %       -58.5

* * *

// reported hERG current change (%, negative = inhibition) at 10uM for each item listed
# Measured target: human ether-à-go-go-related gene (hERG) potassium channel (human);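 further: peak tail current of the secondary pulse compared with the same well before compound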
# Procedure text: primary screen, population patch clamp on CHO cells stably expressing hERG; higher = less effect of the substance
# Method: Briefly, Chinese hamster ovary (CHO) cells stably expressing the hERG channel were dislodged from tissue culture flasks and dispensed into PPC plates. […] During the recording, background leak currents were estimated by a 100 ms step to -80 mV from an initial holding potential of -70 mV and subtracted from the subsequent current measurement. The campaign was conducted in two phases using slight differences in recording protocol. […]
Hit rate of the full screen: of about 310,000 compounds, about 14,000 (4.5%) showed an effect of 50% or more. Effects have a minus sign here. The full list was thinned out, with strong results kept by preference.
Measurement kind: hERG current change (%, negative = inhibition) at 10uM (%)

> print(dat)
                                    compound  test.value
 1                          Nc1ccc2ncccc2c1N        6.47
 2               Cc1cnc2c(c1)C(=O)c1ccccc1-2        13.6
 3  CC(C)N1C(=O)CCC1C(=O)NC1CCCC1 (centres unmarked)       -3.05
 4  CCN(CC)CCCNC(=O)C1c2ccccc2C(=O)N(CCOC)C1c1ccc(F)cc1 (centres unmarked)        14.9
 5    Cc1nc(SCC(=O)NCc2ccco2)c2c(C)c(C)sc2n1       -2.85
 6           O=C(COc1ccc2ccccc2c1Br)Nn1cnnc1       -1.78
 7  CCOc1cc(-c2nccc3cc(OC)c(OC)cc23)cc(OCC)c1OCC       -46.8
 8  CCOc1ccc2c(c1)sc(N)[n+]2Cc1cc(C)cc2cccnc12.[Br-]       -74.9
 9       Cc1cc(C[n+]2ccsc2N)c2ncccc2c1.[Br-]       -48.2
10  CC1CCCC(C)N1CC(O)COc1c(F)cc(Br)cc1F.Cl (centres unmarked)       -57.7
11  CS(=O)(=O)CCC(C(=O)OCc1ccc(Br)cc1)N1C(=O)c2ccccc2C1=O (centres unmarked)     -0.0845
12  CN(CC(O)COc1c(F)cc(Br)cc1F)C1CCCCC1.Cl (centres unmarked)       -65.9
13  CC(C)NCC(O)COc1c(F)cc(Br)cc1F.Cl (centres unmarked)       -4.33
14          COc1ccc(CNc2nc3ccccc3n2C(C)C)cc1       -18.7
